Values were extracted from the DeepSol protein solubility set.

# experiment: soluble on expression in E. coli; label from the status in PepcDB or PDB records
measuredAttribute: soluble on expression in E. coli

[
  {
    "sequence": "MGSDKIHHHHHHLAVMPFSPDQIIRPEILALSAYHVPPACGMIKLDAMENPYPLPPELRDEIAKLAGETPVNRYPDPDAAALKAALREALSIPDGMDIMLGNGSDEIIQIIALACGKPGAVLMSVEPAFVMFRMIATFASMNYVGVPLHPDFSLDAEAMLAAIARYQPAVIFIAYPNNPTGNLFDAVEISRIIDAAPGVVVVDEAYHAFADASFMDKLAHHPNLLLMRTLSKLGMAGLRLGLLAGKPEWLRQLEKLRLPYNVGIVTQRIAEKLLQHRDVLLQQAAAIKLERSSMSRRLAELEGIEVFPTDANFILFRLNQDHKATQVFQELKQRGILVKNLDGAHPLLKNCLRVTVGMPDENAQFLEVLQTLLVKVEAKA",
    "value": "not soluble"
  },
  {
    "sequence": "MGSDKIHHHHHHMQNPRRICVADPNHRLSQKRFTRNSRDIFICPDCGCIMADVDFDHDQYESGDYYTMQHKTVQSIEEVWGFRWRYILDQILKINGRSSLLDVGAGNGYFVALASREFSFDASGLEISQEEVQFAADVLNIGLIREDLTQHNLDYDVVTCLNVLEHVVDPQLFLSHLVNRVKPGGLLVITTPNPACIHRKVKGLKNWNMIAPPHHINLFTKESLYILLMRYGLIQLDYQTISTYVNFVRGFDTENLLLRRLFFNLLKIFDLGADHFFIVKKPSQC",
    "value": "not soluble"
  }
]
